Answer each item with its documented pIC50.
- Target desc: recombinant full-length USP7 (Homo sapiens, UniProt Q93009)
- Construct: A 25 μl reaction volume containing recombinant full-length USP7 (62 pM)
- Sequence (Q93009 whole entry): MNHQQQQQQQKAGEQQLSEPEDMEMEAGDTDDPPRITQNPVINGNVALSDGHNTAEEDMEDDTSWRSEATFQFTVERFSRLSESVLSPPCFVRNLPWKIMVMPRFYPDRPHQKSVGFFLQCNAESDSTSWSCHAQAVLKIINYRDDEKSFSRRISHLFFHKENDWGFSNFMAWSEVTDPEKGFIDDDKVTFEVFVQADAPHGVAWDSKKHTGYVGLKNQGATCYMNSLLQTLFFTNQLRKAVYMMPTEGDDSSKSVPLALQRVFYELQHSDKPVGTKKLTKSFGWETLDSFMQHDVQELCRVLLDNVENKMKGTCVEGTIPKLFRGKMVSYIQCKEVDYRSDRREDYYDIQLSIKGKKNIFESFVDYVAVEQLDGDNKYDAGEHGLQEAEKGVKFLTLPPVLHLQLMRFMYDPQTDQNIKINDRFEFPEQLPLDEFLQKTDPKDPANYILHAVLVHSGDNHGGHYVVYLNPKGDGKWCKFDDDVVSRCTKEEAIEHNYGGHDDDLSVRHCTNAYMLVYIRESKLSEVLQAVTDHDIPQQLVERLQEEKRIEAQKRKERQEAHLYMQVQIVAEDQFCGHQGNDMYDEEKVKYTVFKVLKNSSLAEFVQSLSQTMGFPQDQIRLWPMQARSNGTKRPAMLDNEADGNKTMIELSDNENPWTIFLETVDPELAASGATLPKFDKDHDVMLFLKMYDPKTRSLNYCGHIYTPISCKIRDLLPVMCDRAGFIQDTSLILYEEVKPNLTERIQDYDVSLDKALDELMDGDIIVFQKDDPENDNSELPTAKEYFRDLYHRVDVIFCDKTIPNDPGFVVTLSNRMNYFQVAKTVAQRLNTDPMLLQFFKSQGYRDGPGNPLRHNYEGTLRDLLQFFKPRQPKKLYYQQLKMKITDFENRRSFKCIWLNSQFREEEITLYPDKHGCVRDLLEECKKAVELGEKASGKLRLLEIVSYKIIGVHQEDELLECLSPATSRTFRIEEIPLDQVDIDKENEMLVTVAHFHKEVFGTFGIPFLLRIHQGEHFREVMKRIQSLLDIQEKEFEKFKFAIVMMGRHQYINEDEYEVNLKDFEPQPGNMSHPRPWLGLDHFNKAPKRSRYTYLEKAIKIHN
- Test details: USP7-mediated ubiquitin-rhodamine cleavage assay
- Assay type: biochemical
- Condition description: recombinant full-length USP7 62 pM; ubiquitin-rhodamine 100 nM; 30-minute incubation with compound, 1 hour reaction at room temperature; read-out: Potency: USP7 IC50
pIC50: −log10 of the molar value. Structures can show the parent of a compound that is named as a salt.

| Compound | Target desc | Measured property | Experimental result |
| --- | --- | --- | --- |
| CN[C@H]1CC[C@H](Oc2c(C)cc(Cl)cc2-c2ccnc3cc(CO)sc23)CC1 | recombinant full-length USP7 (Homo sapiens, UniProt Q93009) | pIC50 | 4.52 to 5.00 |
| CC(=O)N[C@H]1CNC[C@H]1Oc1c(C)cc(Cl)cc1-c1ccnc2cc(CO)sc12 | recombinant full-length USP7 (Homo sapiens, UniProt Q93009) | pIC50 | 4.52 to 5.00 |
| Cc1cc(Cl)cc(-c2ccnc3cc(CN4C(=O)C5C(C4=O)C5(C)C)sc23)c1O[C@@H]1CCNC[C@@H]1F (stereo partly drawn) [Example 382] | recombinant full-length USP7 (Homo sapiens, UniProt Q93009) | pIC50 | > 6.00 |
| Cc1cc(Cl)cc(-c2ccnc3cc(CN4C(=O)C5CCCN5C4=O)sc23)c1O[C@@H]1CNC[C@@H]1F (stereo partly drawn) | recombinant full-length USP7 (Homo sapiens, UniProt Q93009) | pIC50 | > 6.00 |
| Cc1cc(Cl)cc(-c2ccnc3c(F)c(CN4C(=O)CCC4=O)sc23)c1O[C@@H]1CNC[C@@H]1F | recombinant full-length USP7 (Homo sapiens, UniProt Q93009) | pIC50 | > 6.00 |
| Cc1cc(Cl)cc(-c2ncnc3cc(CN4C(=O)C5C(C4=O)C5(C)C)sc23)c1O[C@@H]1CCN(C)C[C@@H]1C (stereo partly drawn) [Example 373, dihydrochloride] | recombinant full-length USP7 (Homo sapiens, UniProt Q93009) | pIC50 | > 6.00 |
| Cc1cc(Cl)cc(-c2ccnc3cc(CN4C(=O)CCNC4=O)sc23)c1OC1CCNCC1 | recombinant full-length USP7 (Homo sapiens, UniProt Q93009) | pIC50 | > 6.00 |
| Cc1cc(Cl)cc(-c2ccnc3cc(CN4C(=O)CCC4=O)sc23)c1O[C@H]1C[C@H]2CC[C@@H](C1)N2 | recombinant full-length USP7 (Homo sapiens, UniProt Q93009) | pIC50 | > 6.00 |

Quick one: give me pIC50 for each item below, same order please.
1. Cc1cc(Cl)cc(-c2ccnc3cc(Cn4c(=O)ccn(CC(F)(F)F)c4=O)sc23)c1OC1(C)CNC1
2. Cc1cc(Cl)cc(-c2ccnc3cc(CO)sc23)c1O[C@@H]1CNC[C@@H]1C(C)C
3. Cc1cc(Cl)cc(-c2ccnc3cc(CN4C(=O)CN(C)C4=O)sc23)c1OC1CCNCC1
4. CC(Oc1ccc(Cl)cc1-c1ccnc2cc(CO)sc12)C1CNC1 (stereo not drawn)
5. Cc1cc(Cl)cc(-c2ncnc3cc(CN4C(=O)c5ccccc5C4=O)sc23)c1O[C@@H]1CNC[C@@H]1F
6. Cc1cc(Cl)cc(-c2ncnc3cc(CN4C(=O)CCC4=O)sc23)c1O[C@H]1CCCNC1
7. Cc1cc(Cl)cc(-c2ccnc3cc(CN4C(=O)CCC4=O)sc23)c1O[C@@H]1CN(C(C)C)C[C@@H]1F
8. Cc1cc(Cl)cc(-c2ncnc3cc(CN4C(=O)COC4=O)sc23)c1OC1CCNCC1

Output:
1: > 6.00; 2: < 4.52; 3: 5.00 to 6.00; 4: 4.52 to 5.00; 5: > 6.00; 6: > 6.00; 7: > 6.00; 8: 5.00 to 6.00

Quick one: give me pIC50 for each item below, same order please.
1. Cc1cc(C)c(O[C@H]2CCCNC2)c(-c2ccnc3cc(CO)sc23)c1
2. Cc1cc(Cl)cc(-c2ccnc3cc(CN4C(=O)CCC4=O)sc23)c1OC1CNC(C)(C)C1 (stereo not drawn)
3. Cc1cc(Cl)cc(-c2ccnc3cc(CN4C(=O)C5CC5C4=O)sc23)c1O[C@@H]1CCN(C)C[C@@H]1C (stereo partly drawn)
4. Cc1cc(Cl)cc(-c2ccnc3cc(CO)sc23)c1OCC1(C)CNC1
5. Cc1cc(Cl)cc(-c2ccnc3cc(CN4C(=O)NC(C)(C)C4=O)sc23)c1O[C@@H]1CNC[C@@H]1F
6. OCc1cc2nccc(-c3cc(Cl)cc(Br)c3OCC3CNC3)c2s1
7. Cc1cc(Cl)cc(-c2ccnc3cc(CN4C(=O)CCC4=O)sc23)c1OC1CCNCC1CO (stereo not drawn)

Output:
1: 4.52 to 5.00; 2: > 6.00; 3: > 6.00; 4: 5.00 to 6.00; 5: > 6.00; 6: 5.00 to 6.00; 7: > 6.00
